Measured values drawn from patent US20240252488A1 for this set.

Target: UniProtKB Q8NB16
Assay: MLKL degradation assay in HepG2 cell line (western blot)
Format: cell-based
Set-up: endogenous in cells; host or cells: HepG2 or HaCaT
Conditions: compound 1 μM; cell line not given
Just a reminder that ties go to false (0): only Degradation assay (Degradation %) 1 μM strictly below 80% counts as true (1).

compound | qualitative label
Nc1ncc(-c2cnn(C3CCN(C4CC5(CCN(CC6CCN(C(=O)c7cccc(C(=O)NC8CCC(=O)NC8=O)c7)CC6)CC5)C4)CC3)c2)nc1C(=O)O[C@@H](C(=O)Nc1ccc(F)cc1)c1ccccc1 (some centres unmarked) [TDH-544] | true (1)
Nc1ncc(-c2cnn(C3CCN(CCC4CCN(C(=O)COc5cccc6c5C(=O)N(C5CCC(=O)NC5=O)C6=O)CC4)CC3)c2)nc1C(=O)O[C@@H](C(=O)Nc1ccc(F)cc1)c1ccccc1 (some centres unmarked) [TDH-200] | true (1)
Nc1ncc(-c2cnn(C3CCN(C4CC5(CCN(CC6CCN(C(=O)CNc7ccc8c(c7)C(=O)N(C7CCC(=O)NC7=O)C8=O)CC6)CC5)C4)CC3)c2)nc1C(=O)O[C@@H](C(=O)Nc1ccc(F)cc1)c1ccccc1 (some centres unmarked) [TDH-443] | false (0)
Nc1ncc(-c2cnn(C3CCN(CCCN4CCN(C(=O)CCc5ccc6c(c5)CN(C5CCC(=O)NC5=O)C6=O)CC4)CC3)c2)nc1C(=O)O[C@@H](C(=O)Nc1ccc(F)cc1)c1ccccc1 (some centres unmarked) [TDH-476] | false (0)
Nc1ncc(-c2cnn(C3CCN(CC4CN(C(=O)CNc5cccc6c5C(=O)N(C5CCC(=O)NC5=O)C6=O)CCO4)CC3)c2)nc1C(=O)OC(C(=O)Nc1ccc(F)cc1)c1ccccc1 (centres unmarked) [TDH-306] | true (1)

----------
Biological target: MLKL (Homo sapiens, UniProt Q8NB16)
Sequence (Q8NB16 whole entry): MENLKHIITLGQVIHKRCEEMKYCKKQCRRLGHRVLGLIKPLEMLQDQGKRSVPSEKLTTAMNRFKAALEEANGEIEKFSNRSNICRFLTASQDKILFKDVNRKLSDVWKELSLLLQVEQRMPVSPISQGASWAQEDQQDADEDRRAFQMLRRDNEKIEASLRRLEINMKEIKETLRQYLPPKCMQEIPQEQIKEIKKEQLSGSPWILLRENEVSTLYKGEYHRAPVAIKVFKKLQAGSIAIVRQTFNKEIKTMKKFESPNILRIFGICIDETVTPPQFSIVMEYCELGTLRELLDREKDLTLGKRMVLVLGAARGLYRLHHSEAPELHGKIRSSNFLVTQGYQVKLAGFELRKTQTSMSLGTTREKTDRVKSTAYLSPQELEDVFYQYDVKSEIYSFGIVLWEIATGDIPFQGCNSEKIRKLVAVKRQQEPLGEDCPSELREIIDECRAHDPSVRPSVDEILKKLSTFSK
Experiment: MLKL degradation assay in HepG2 cell line (western blot)
Format: cell-based
Design: endogenous in cells; host or cells: HepG2 or HaCaT
Settings: compound 1 μM; cell line not given

compound | Degradation assay (Degradation %) 1 μM
Nc1ncc(-c2ccc(N3CCN(CCOCCOCCNC(=O)CNc4cccc5c4C(=O)N(C4CCC(=O)NC4=O)C5=O)CC3)nc2)nc1C(=O)OC(C(=O)Nc1ccc(F)cc1)c1ccccc1 (stereo not drawn) [TDH-259] | 18.61
Nc1ncc(-c2cnn(C3CCN(CCC4CCN(C(=O)COc5cccc6c5C(=O)N(C5CCC(=O)NC5=O)C6=O)CC4)CC3)c2)cc1C(=O)OC(C(=O)Nc1ccc(F)cc1)c1ccccc1 (stereo not drawn) [TDH-301] | 76.3
Nc1ncc(-c2cnn(C3CCN(C(=O)C4CCN(c5ccc6c(c5)C(=O)N(C5CCC(=O)NC5=O)C6=O)CC4)CC3)c2)nc1C(=O)OC(C(=O)Nc1ccc(F)cc1)c1ccccc1 (stereo not drawn) [TDH-280] | 53.99

----------
Below, each entry is listed with its recorded Necroptosis inhibition assay (Rescue %) 1 μM.
Test system: FADD−/− Jurkat cells
Test: Necroptosis inhibition assay, TNF-α-induced necroptosis (CellTiter-Glo 2.0)
Type: cell-based, human
Conditions: compound 1 μM; TNF-α 15 ng/mL
Method: Necroptosis Inhibition Assay Necroptosis inhibition was evaluated by the following method. […] After incubation, the 96-well plate was left at room temperature for 30 minutes. […] After measuring the luminescence at 0.5 seconds per well using a plate scanner, the cytotoxicity and necroptosis inhibition rate for the compound were calculated using the measured values.
parameter: Necroptosis inhibition assay (Rescue %) 1 μM

molecule | test result
Nc1ncc(-c2cnn([C@@H]3CCN(CCOCCOCCNC(=O)COc4cccc5c4C(=O)N(C4CCC(=O)NC4=O)C5=O)C3)c2)nc1C(=O)OC(C(=O)Nc1ccc(F)cc1)c1ccccc1 (some centres unmarked) [TDH-269] | 35.71
Nc1ncc(C2=CCN(C(=O)CCCCCNC(=O)COc3cccc4c3C(=O)N(C3CCC(=O)NC3=O)C4=O)CC2)cc1C(=O)O[C@@H](C(=O)Nc1ccc(F)cc1)c1ccccc1 (some centres unmarked) [TDH-081] | 6.8
Nc1ncc(-c2cnn(C3CCN(CC4CCN(CC(=O)N5CCN(c6cccc7c6C(=O)N(C6CCC(=O)NC6=O)C7=O)CC5)CC4)CC3)c2)nc1C(=O)OC(C(=O)Nc1ccc(F)cc1)c1ccccc1 (centres unmarked) [TDH-237] | 67.77
Nc1ncc(-c2cnn(C3CCN(C(=O)C4CCN(C(=O)CNc5ccc6c(c5)C(=O)N(C5CCC(=O)NC5=O)C6=O)CC4)CC3)c2)nc1C(=O)OC(C(=O)Nc1ccc(F)cc1)c1ccccc1 (centres unmarked) [TDH-276] | 75.36
Nc1ncc(-c2cnn(C3CCN(CC4CN(C(=O)C5CCN(c6cccc7c6C(=O)N(C6CCC(=O)NC6=O)C7=O)CC5)CCO4)CC3)c2)nc1C(=O)OC(C(=O)Nc1ccc(F)cc1)c1ccccc1 (centres unmarked) [TDH-304] | 38.26
